Below: a set of entries, each annotated with reported MIC.
System: Escherichia coli ATCC 25922
Experiment: Antimicrobial MIC assay (CO-ADD) against E. coli
Format: cell-based
Conditions: Escherichia coli, ATCC25922, read-out: MIC E.c.
Description: Antimicrobial evaluation against S. aureus (MRSA) (ATCC 43300), E. coli (ATCC 25922), K. pneumoniae (ATCC 700603), A. baumannii (ATCC 19606), C. albicans (ATCC 90028), and C. neoformans (ATCC 208821) was undertaken at the Community for Open Antimicrobial Drug Discovery at The University of Queensland (Australia) according to their standard protocols as reported previously.

Observe how each entry below is paired with its result.
C[C@H](CCC(=O)NCCCNCCCCCCCCCCCCNCCCNC(=O)CC[C@@H](C)[C@H]1CC[C@H]2[C@@H]3C[C@H](O)[C@@H]4C[C@H](O)CC[C@]4(C)[C@H]3CC[C@]12C)[C@H]1CC[C@H]2[C@@H]3C[C@H](O)[C@@H]4C[C@H](O)CC[C@]4(C)[C@H]3CC[C@]12C.O=C(O)C(F)(F)F.O=C(O)C(F)(F)F [Compound 7f] = > 25 µM
C[C@H](CCC(=O)NCCCNCCCCCCCCCCCCNCCCNC(=O)CC[C@@H](C)[C@H]1CC[C@H]2[C@@H]3[C@@H](O)C[C@@H]4C[C@H](O)CC[C@]4(C)[C@H]3CC[C@]12C)[C@H]1CC[C@H]2[C@@H]3[C@@H](O)C[C@@H]4C[C@H](O)CC[C@]4(C)[C@H]3CC[C@]12C.O=C(O)C(F)(F)F.O=C(O)C(F)(F)F [Compound 8f] = > 25 µM

# context switch: different compound, same MIC
What value of MIC has been reported for the following compound? C[C@H](CCC(=O)NCCCNCCCCCCCCNCCCNC(=O)CC[C@@H](C)[C@H]1CC[C@H]2[C@@H]3C[C@H](O)[C@@H]4C[C@H](O)CC[C@]4(C)[C@H]3CC[C@]12C)[C@H]1CC[C@H]2[C@@H]3C[C@H](O)[C@@H]4C[C@H](O)CC[C@]4(C)[C@H]3CC[C@]12C.O=C(O)C(F)(F)F.O=C(O)C(F)(F)F [Compound 7d]
> 26 µM
